Origin of the recorded values: ChEMBL document CHEMBL4028852

molecular target: Cav1.2 (Homo sapiens); experiment: Inhibition of Cav1.2 (unknown origin) at 30 uM
Sequence (Q13936 whole entry): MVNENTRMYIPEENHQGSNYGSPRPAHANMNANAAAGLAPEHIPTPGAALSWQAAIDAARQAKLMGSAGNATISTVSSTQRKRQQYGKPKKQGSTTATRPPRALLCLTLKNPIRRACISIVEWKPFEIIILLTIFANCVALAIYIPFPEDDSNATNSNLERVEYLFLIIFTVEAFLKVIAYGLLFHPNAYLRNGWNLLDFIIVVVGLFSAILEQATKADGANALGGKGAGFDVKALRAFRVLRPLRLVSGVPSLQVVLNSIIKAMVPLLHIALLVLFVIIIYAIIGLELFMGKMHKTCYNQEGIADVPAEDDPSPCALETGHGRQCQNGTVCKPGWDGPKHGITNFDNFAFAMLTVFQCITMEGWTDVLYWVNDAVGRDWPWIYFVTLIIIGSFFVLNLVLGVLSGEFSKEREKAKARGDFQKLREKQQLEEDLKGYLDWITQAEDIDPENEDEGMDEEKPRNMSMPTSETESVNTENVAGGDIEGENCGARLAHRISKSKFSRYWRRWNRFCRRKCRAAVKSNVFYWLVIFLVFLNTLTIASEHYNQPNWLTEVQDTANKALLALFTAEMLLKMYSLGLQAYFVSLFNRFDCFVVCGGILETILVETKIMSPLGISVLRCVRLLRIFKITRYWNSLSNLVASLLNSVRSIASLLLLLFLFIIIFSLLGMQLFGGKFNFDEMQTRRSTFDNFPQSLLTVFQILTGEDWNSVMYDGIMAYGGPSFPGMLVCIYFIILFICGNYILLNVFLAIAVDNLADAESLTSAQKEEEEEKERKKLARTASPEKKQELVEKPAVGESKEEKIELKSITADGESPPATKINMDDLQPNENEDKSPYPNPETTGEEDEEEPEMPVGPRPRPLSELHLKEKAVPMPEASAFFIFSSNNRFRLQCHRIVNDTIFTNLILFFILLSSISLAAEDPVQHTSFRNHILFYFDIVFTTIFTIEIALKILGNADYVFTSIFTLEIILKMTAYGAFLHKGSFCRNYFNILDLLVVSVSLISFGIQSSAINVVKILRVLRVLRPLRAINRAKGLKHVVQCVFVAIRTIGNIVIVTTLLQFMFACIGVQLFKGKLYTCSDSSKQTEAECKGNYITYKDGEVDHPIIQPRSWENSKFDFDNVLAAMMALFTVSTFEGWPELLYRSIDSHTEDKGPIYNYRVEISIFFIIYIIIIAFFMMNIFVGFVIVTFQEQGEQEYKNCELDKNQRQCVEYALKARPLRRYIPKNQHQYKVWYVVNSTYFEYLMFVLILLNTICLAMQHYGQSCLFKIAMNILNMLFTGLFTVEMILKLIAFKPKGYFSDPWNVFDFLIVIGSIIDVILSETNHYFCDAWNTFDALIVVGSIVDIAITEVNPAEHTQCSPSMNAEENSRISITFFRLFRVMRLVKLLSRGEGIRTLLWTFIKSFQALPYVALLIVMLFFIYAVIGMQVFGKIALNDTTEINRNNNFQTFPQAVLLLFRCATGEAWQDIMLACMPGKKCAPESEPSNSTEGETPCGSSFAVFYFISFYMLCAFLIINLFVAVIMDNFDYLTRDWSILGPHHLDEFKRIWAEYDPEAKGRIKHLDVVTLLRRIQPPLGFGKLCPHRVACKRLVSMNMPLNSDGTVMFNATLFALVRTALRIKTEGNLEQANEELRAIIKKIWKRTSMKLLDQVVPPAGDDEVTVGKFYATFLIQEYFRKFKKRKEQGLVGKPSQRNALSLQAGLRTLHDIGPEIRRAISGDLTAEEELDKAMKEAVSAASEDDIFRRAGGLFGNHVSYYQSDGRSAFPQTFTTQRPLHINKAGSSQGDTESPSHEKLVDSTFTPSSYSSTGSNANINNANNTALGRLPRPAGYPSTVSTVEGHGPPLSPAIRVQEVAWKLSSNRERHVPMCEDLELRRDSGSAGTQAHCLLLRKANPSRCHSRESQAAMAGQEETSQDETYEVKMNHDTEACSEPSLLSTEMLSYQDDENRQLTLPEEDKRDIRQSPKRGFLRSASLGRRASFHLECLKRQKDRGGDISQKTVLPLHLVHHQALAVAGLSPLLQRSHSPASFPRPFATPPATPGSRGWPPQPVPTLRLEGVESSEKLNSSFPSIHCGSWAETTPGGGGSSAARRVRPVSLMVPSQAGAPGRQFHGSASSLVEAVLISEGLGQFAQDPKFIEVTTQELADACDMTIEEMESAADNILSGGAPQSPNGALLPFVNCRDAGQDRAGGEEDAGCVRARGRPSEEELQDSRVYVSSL

Test smiles | inhibition at 30 µM
COc1cc(C#N)ccc1S(=O)(=O)Nc1ccc2c(c1)cc(C)c(=O)n2C | < 40%

* * *

target: Nav1.5 (Homo sapiens, UniProt Q14524); assay: Inhibition of Nav1.5 (unknown origin) at 30 uM
Quantity measured: inhibition at 30 µM

Test smiles | Quantity measured | Reported value
COc1cc(C#N)ccc1S(=O)(=O)Nc1ccc2c(c1)cc(C)c(=O)n2C | inhibition at 30 µM | < 40%

* * *

target: Bromodomain-containing protein 9 (Homo sapiens); test: Inhibition of His-tagged BRD9 (unknown origin) after 30 mins by alphaScreen assay
pIC50: −log10 of the molar value.

Test smiles | pIC50
COc1cc(C#N)ccc1S(=O)(=O)Nc1ccc2c(c1)cc(C)c(=O)n2C | 5.36

* * *

Molecular target: Bromodomain-containing protein 9 (Homo sapiens, UniProt Q9H8M2)
Sequence (Q9H8M2 whole entry): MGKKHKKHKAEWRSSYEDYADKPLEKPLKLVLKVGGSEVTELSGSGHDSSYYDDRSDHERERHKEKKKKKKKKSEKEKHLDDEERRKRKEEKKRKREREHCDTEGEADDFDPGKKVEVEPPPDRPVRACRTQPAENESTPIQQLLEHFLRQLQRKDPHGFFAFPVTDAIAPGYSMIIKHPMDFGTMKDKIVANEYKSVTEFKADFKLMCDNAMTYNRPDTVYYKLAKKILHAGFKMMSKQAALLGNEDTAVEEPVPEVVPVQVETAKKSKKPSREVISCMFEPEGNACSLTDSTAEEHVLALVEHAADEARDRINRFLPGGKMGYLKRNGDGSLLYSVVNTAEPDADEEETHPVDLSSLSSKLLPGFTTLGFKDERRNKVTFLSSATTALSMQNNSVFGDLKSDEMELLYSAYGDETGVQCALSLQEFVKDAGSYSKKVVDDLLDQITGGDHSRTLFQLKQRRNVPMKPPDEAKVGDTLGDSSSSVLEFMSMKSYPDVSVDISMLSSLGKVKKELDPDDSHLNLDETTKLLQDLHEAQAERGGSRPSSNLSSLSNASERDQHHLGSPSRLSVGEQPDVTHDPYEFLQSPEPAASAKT
Test: Binding affinity to BRD9 (unknown origin) by isothermal titration calorimetry

Test smiles | Test target | Kd (nM)
COc1cc(C#N)ccc1S(=O)(=O)Nc1ccc2c(c1)cc(C)c(=O)n2C | Bromodomain-containing protein 9 (Homo sapiens, UniProt Q9H8M2) | 1000

* * *

test: Elimination half life in CD1 mouse at 1 mg/kg, iv by UPLC-MS/MS analysis; assay type: ADME, organism-based; details: in vivo, read-out: beta t1/2 (converted)
Quantity measured: half-life (h)

Test smiles | Reported value
COc1cc(C#N)ccc1S(=O)(=O)Nc1ccc2c(c1)cc(C)c(=O)n2C | 1.2

* * *

Overview of reported IC50 across a group of molecules:
target: Bromodomain and PHD finger-containing protein 3 (Homo sapiens, UniProt Q9ULD4); assay: Inhibition of human BRPF3 (588 to 701 residues) expressed in Escherichia coli BL21 after 1 hr by BROMOscan assay
Sequence (Q9ULD4 whole entry, the tested form may be a part): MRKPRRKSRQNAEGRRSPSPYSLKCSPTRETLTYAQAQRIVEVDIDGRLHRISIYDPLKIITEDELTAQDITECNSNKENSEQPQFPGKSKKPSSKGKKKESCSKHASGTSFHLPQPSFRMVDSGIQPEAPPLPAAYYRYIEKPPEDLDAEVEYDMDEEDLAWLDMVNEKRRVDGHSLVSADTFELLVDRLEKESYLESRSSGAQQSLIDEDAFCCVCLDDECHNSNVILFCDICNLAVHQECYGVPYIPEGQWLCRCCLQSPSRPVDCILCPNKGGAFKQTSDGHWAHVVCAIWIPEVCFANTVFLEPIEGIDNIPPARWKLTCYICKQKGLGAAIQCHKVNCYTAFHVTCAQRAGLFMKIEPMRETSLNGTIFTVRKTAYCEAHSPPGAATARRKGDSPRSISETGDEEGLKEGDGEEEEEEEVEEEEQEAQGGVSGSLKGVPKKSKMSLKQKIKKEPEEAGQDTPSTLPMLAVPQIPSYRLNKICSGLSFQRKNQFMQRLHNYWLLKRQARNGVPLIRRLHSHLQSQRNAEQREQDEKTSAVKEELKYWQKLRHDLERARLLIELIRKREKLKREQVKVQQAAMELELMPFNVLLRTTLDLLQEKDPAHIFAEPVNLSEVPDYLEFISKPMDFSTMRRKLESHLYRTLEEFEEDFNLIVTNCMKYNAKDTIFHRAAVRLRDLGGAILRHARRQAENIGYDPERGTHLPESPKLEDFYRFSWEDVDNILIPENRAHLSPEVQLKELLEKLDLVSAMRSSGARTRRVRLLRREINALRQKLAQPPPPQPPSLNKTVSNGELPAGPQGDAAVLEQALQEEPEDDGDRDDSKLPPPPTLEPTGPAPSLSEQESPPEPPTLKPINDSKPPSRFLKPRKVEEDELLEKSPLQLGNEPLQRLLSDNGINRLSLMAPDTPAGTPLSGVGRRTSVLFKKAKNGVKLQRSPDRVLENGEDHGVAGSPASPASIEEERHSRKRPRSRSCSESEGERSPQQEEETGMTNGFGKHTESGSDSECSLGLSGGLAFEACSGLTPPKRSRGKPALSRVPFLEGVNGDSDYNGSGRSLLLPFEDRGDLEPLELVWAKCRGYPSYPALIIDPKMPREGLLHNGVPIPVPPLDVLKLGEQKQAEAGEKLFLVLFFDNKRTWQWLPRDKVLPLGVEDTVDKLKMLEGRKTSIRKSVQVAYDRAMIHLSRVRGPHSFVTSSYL

Test smiles | Unit text | Relational operator | IC50
COc1cc(C#N)ccc1S(=O)(=O)Nc1ccc2c(c1)cc(C(C)C)c(=O)n2C | µM | = | 4.6
Cn1c(=O)ccc2cc(S(=O)(=O)Nc3ccc(C#N)cc3)ccc21 | µM | = | 2.2
Cn1c(=O)ccc2cc(S(=O)(=O)Nc3ccccc3)ccc21 | µM | > | 100
CCc1cc2cc(NS(=O)(=O)c3ccc(C#N)cc3OC)ccc2n(CC)c1=O | µM | = | 4.6
CC(C)c1cc2cc(NS(=O)(=O)c3ccc(C#N)cc3)ccc2n(C)c1=O | µM | = | 16
COc1cc(C#N)ccc1S(=O)(=O)Nc1cc(F)c2c(c1)cc(C)c(=O)n2C | µM | = | 10
